Data origin: ChEMBL document CHEMBL4888484

Test system: Plasmodium falciparum
Experiment: Confirmatory screen in NF54 nanoGlo assay, in single point, at 2uM, 72h
Format: functional, Erythrocyte
Details: timepoint 72 hour
About 420 (8.8%) of roughly 4,800 compounds showed an effect of 50% or more. Many of the other results were omitted from the sample, so strong results are more common in it than they were.
readout: % Inhibition (%)

# molecule, readout, units label, number
records = [
    ("COc1ccc(NC(=O)Cn2c(C(F)(F)F)nc3cc4c(cc32)OCCCO4)cc1", "% Inhibition", "%", 4),
    ("Cc1nn(C)c(C)c1S(=O)(=O)N1CC[C@]2(CCN(c3cccnc3)C2)C1", "% Inhibition", "%", 1),
    ("CC(C)(C)OC(=O)N1CCN(C[C@H]2CN(c3ccc(F)cc3)C(=O)O2)CC1", "% Inhibition", "%", -11),
    ("O=C(Cn1ccnc1)N1CCCCCC1CC(O)c1ccccc1 (stereo unspecified)", "% Inhibition", "%", 0),
    ("Cc1cc(Cn2cc(C(c3ccccc3)c3ccccc3)nn2)no1", "% Inhibition", "%", -3),
    ("Cc1c(NC(=O)CCc2ccsc2)nnn1Cc1ccccc1F", "% Inhibition", "%", -10),
]
